- method.notes: Octanol/aqueous buffer partition coefficient (modified shake-flask)
- Type: physicochemical
- run.parameters: octanol/water, buffered at pH 7 with 10 mM Tris
measurement.name: log P

Recorded log P, per entry:
INSERT INTO measurements (molecule, value) VALUES
  ('O=C(NCC[P+](c1ccccc1)(c1ccccc1)c1ccccc1)c1ccc2c(c1)C1(OC2=O)c2cc(Cl)c(O)c(CN(Cc3ccccn3)Cc3ccccn3)c2Oc2c1cc(Cl)c(O)c2CN(Cc1ccccn1)Cc1ccccn1', '−0.11'),
  ('CC(=O)Oc1c(Cl)cc2c(c1CN(Cc1ccccn1)Cc1ccccn1)Oc1c(cc(Cl)c(OC(C)=O)c1CN(Cc1ccccn1)Cc1ccccn1)C21OC(=O)c2ccc(C(=O)NCC[P+](c3ccccc3)(c3ccccc3)c3ccccc3)cc21', 0.74);

(I) O=C(NCC[P+](c1ccccc1)(c1ccccc1)c1ccccc1)c1cc2cc3c4c(c2oc1=O)CCCN4CCC3
(II) ClCc1ccc(C2=c3cc4c5c(c3Oc3c2cc2c6c3CCCN6CCC2)CCC[N+]=5CCC4)cc1.[Cl-] [Mitotracker Red, reference compound]
Asked: Which record shows the lower log P: the first, I , or the second, II ? # respond with the chosen item's label
Given back: I
(I: 0.72, II: 1.15)

* * *

- method.notes: Octanol/aqueous buffer partition coefficient (modified shake-flask)
- Assay type: physicochemical
- run.parameters: octanol/aqueous buffer; octanol/water, buffered at pH 7 with 10 mM Tris
- Excerpt: To understand better the limitations of TPP in directing fluorophores to mitochondria, we prepared two additional TPP-derivatives, one based on 6-carboxyfluorescein (FL-TPP) and one on coumarin 343 (C343-TPP). […] To test this hypothesis, we conducted live cell fluorescence imaging experiments with FL-TPP. […] To quantify the effect of hydrophobicity in mitochondrial-targeting, we measured the octanol/aqueous buffer partition coefficient (log P) for our TPP constructs and two MitoTracker dyes. […]
measurement.name: logP
Hey, just send me the number, nothing else.

Asked: // lookup logP for CN1/C(=C/C=C/c2n(Cc3ccc(CCl)cc3)c3cc(Cl)c(Cl)cc3[n+]2Cc2ccc(CCl)cc2)Oc2ccccc21 [Mitotracker Green, reference compound]
Given back: 0.56
